- Assay summary: Cytotoxicity against HDF after 4 hrs by alamar blue assay
- Protocol conditions: Homo sapiens
Measurement label: IC50

So for "CCc1nc(N)nc(N)c1C#CCc1cc(-c2ccc(C(=O)O)cc2)ccc1OC" , the logged IC50 turned out to be > 500 µM

---

- Target or system: Cytochrome P450 3A4 (Homo sapiens, UniProt P08684)
- Sequence (P08684 whole entry): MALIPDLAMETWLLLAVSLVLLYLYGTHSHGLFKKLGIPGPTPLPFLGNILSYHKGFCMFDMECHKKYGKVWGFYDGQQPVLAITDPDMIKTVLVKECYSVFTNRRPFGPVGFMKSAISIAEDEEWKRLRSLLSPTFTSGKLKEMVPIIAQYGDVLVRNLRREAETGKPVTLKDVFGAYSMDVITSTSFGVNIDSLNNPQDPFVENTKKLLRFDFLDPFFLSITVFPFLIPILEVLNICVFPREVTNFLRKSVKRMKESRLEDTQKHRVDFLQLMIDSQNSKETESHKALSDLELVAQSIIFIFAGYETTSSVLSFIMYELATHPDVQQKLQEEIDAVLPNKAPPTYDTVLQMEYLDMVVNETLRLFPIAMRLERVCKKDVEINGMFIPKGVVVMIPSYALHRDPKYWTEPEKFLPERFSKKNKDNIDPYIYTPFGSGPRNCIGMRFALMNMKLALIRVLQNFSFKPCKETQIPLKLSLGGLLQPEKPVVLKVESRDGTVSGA
Measurement label: IC50

The compound "CCc1nc(N)nc(N)c1C#CCc1cc(-c2ccc(C(=O)O)cc2)ccc1OC" , tested on Cytochrome P450 3A4 (Homo sapiens, UniProt P08684), showed IC50 of > 50 µM

---

- Test system: HepG2
- Assay summary: Cytotoxicity against human HepG2 cells at 100 uM after 4 hrs by alamar blue assay
- Assay type: cell-based
- Protocol conditions: hepg2, 4 h
Measurement label: Activity

So for "CCc1nc(N)nc(N)c1C#CCc1cc(-c2ccccc2C(=O)O)ccc1OC" , the logged Activity turned out to be Non-toxic

So for "CCc1nc(N)nc(N)c1C#C[C@H](C)c1cc(OC)cc(-c2ccc(C(=O)O)cc2)c1" , the logged Activity turned out to be Non-toxic

So for "CCc1nc(N)nc(N)c1C#C[C@@H](C)c1cc(OC)cc(-c2ccc(C(=O)O)cc2)c1" , the logged Activity turned out to be Non-toxic

---

- Assay summary: Therapeutic index, ratio of IC50 for human HepG2 cells to MIC for Staphylococcus aureus ATCC 43300
- Assay type: cell-based
- Protocol conditions: read-out: TI
Measurement label: selectivity ratio

So for "CCc1nc(N)nc(N)c1C#CCc1cc(-c2ccc(C(=O)O)cc2)ccc1OC" , the logged selectivity ratio turned out to be > 500000

---

- Target or system: Cytochrome P450 2D6 (Homo sapiens)
- Sequence (P10635 whole entry): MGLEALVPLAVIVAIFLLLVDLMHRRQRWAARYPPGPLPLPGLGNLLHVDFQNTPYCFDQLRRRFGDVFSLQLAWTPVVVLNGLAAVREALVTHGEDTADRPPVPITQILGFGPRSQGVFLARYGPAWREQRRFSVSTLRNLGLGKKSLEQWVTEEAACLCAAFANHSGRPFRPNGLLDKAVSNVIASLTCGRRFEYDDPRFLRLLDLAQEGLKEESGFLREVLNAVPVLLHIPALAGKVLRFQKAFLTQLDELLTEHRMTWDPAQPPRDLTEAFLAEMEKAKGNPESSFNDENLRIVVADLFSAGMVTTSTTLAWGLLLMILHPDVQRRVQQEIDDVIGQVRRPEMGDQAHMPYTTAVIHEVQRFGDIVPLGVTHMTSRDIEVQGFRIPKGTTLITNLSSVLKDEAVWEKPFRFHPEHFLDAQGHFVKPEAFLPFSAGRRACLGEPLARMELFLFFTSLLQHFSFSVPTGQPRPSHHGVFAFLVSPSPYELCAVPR
Measurement label: IC50

So for "CCc1nc(N)nc(N)c1C#CCc1cc(-c2ccc(C(=O)O)cc2)ccc1OC" , the logged IC50 turned out to be > 50 µM
